All figures here come from patent US20230158141A1.

- TARGET SYSTEM: T1, IL-10R1-Fc (UniProt Q13651 22-235, limits assumed)
- T1 sequence (looked up): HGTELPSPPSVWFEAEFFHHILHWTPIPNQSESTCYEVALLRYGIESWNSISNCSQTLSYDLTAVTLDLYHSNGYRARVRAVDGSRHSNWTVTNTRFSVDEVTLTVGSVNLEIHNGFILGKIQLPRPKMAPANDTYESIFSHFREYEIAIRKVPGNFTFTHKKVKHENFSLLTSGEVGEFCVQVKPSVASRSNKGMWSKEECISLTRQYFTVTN
- PROTOCOL DETAILS: ELISA, IL-10R1-Fc coated
Please note: true (1) applies when Decreased fold of binding to ligand after Conjugating with S48 is 10 fold or greater, and false (0) applies otherwise.

IL-10 Lys34Cys-S48 (ligand, human, UniProt P22301 19-178, looked up, S48 on Cys 34, mature; also called IL10-K34C-S48) SPGQGTQSENSCTHFPGNLPNMLRDLRDAFSRVCTFFQMKDQLDNLLLKESLLEDFKGYLGCQALSEMIQFYLEEVMPQAENQDPDIKAHVNSLGENLKTLRLRLRRCHRFLPCENKSKAVEQVKNAFNKLQEKGIYKAMSEFDIFINYIEAYMTMKIRN :: true (1)
IL-10 Glu151Cys-S48 (ligand, human, UniProt P22301 19-178, looked up, S48 on Cys 151, mature) SPGQGTQSENSCTHFPGNLPNMLRDLRDAFSRVKTFFQMKDQLDNLLLKESLLEDFKGYLGCQALSEMIQFYLEEVMPQAENQDPDIKAHVNSLGENLKTLRLRLRRCHRFLPCENKSKAVEQVKNAFNKLQEKGIYKAMSEFDIFINYICAYMTMKIRN :: true (1)
IL-10 Gln38Cys-S48 (ligand, human, UniProt P22301 19-178, looked up, S48 on Cys 38, mature) SPGQGTQSENSCTHFPGNLPNMLRDLRDAFSRVKTFFCMKDQLDNLLLKESLLEDFKGYLGCQALSEMIQFYLEEVMPQAENQDPDIKAHVNSLGENLKTLRLRLRRCHRFLPCENKSKAVEQVKNAFNKLQEKGIYKAMSEFDIFINYIEAYMTMKIRN :: true (1)
IL-10 Arg32Cys-S48 (ligand, human, UniProt P22301 19-178, looked up, S48 on Cys 32, mature) SPGQGTQSENSCTHFPGNLPNMLRDLRDAFSCVKTFFQMKDQLDNLLLKESLLEDFKGYLGCQALSEMIQFYLEEVMPQAENQDPDIKAHVNSLGENLKTLRLRLRRCHRFLPCENKSKAVEQVKNAFNKLQEKGIYKAMSEFDIFINYIEAYMTMKIRN :: true (1)
IL-10 Tyr72Cys-S48 (ligand, human, UniProt P22301 19-178, looked up, S48 on Cys 72, mature) SPGQGTQSENSCTHFPGNLPNMLRDLRDAFSRVKTFFQMKDQLDNLLLKESLLEDFKGYLGCQALSEMIQFCLEEVMPQAENQDPDIKAHVNSLGENLKTLRLRLRRCHRFLPCENKSKAVEQVKNAFNKLQEKGIYKAMSEFDIFINYIEAYMTMKIRN :: false (0)
IL-10 Gly135Cys-S48 (ligand, human, UniProt P22301 19-178, looked up, S48 on Cys 135, mature) SPGQGTQSENSCTHFPGNLPNMLRDLRDAFSRVKTFFQMKDQLDNLLLKESLLEDFKGYLGCQALSEMIQFYLEEVMPQAENQDPDIKAHVNSLGENLKTLRLRLRRCHRFLPCENKSKAVEQVKNAFNKLQEKCIYKAMSEFDIFINYIEAYMTMKIRN :: false (0)
IL-10 Thr13Cys-S48 (ligand, human, UniProt P22301 19-178, looked up, S48 on Cys 13, mature) SPGQGTQSENSCCHFPGNLPNMLRDLRDAFSRVKTFFQMKDQLDNLLLKESLLEDFKGYLGCQALSEMIQFYLEEVMPQAENQDPDIKAHVNSLGENLKTLRLRLRRCHRFLPCENKSKAVEQVKNAFNKLQEKGIYKAMSEFDIFINYIEAYMTMKIRN :: false (0)
IL-10 Lys138Cys-S48 (ligand, human, UniProt P22301 19-178, looked up, S48 on Cys 138, mature) SPGQGTQSENSCTHFPGNLPNMLRDLRDAFSRVKTFFQMKDQLDNLLLKESLLEDFKGYLGCQALSEMIQFYLEEVMPQAENQDPDIKAHVNSLGENLKTLRLRLRRCHRFLPCENKSKAVEQVKNAFNKLQEKGIYCAMSEFDIFINYIEAYMTMKIRN :: true (1)
